System: SNB-19 CNS
Experiment: NCI tumour cell line growth inhibition, 48 h; in the data active = GI50 below about 0.43 µM; inactive = the rest
The categories you may choose from are active, inactive

Solved entries:
>>> class_assignment("COc1ccccc1/C=C/C(=O)/C=C/c1ccccc1OC")
"inactive"
>>> class_assignment("CCNCCCn1c2c(c3ccc([N+](=O)[O-])cc3c1=O)C(=O)c1cc(OC)cnc1-2")
"active"
>>> class_assignment("CN1CCN(c2ccc(C(=O)Nc3cc(-c4cccc(NS(=O)(=O)c5ccccc5)c4)[nH]n3)cc2)CC1")
"inactive"

Now turn to the next compound.
IN: Called result for `CN(C)CCCn1c2nc(=O)[nH]c(=O)c-2nc2cc(Cl)c(Cl)cc21`
OUT: inactive
